Entry source: paper PMC6222548

Target: NR2B receptor (Homo sapiens, UniProt Q05586+Q13224)
Sequence (Q13224 27-1484, other chains not shown): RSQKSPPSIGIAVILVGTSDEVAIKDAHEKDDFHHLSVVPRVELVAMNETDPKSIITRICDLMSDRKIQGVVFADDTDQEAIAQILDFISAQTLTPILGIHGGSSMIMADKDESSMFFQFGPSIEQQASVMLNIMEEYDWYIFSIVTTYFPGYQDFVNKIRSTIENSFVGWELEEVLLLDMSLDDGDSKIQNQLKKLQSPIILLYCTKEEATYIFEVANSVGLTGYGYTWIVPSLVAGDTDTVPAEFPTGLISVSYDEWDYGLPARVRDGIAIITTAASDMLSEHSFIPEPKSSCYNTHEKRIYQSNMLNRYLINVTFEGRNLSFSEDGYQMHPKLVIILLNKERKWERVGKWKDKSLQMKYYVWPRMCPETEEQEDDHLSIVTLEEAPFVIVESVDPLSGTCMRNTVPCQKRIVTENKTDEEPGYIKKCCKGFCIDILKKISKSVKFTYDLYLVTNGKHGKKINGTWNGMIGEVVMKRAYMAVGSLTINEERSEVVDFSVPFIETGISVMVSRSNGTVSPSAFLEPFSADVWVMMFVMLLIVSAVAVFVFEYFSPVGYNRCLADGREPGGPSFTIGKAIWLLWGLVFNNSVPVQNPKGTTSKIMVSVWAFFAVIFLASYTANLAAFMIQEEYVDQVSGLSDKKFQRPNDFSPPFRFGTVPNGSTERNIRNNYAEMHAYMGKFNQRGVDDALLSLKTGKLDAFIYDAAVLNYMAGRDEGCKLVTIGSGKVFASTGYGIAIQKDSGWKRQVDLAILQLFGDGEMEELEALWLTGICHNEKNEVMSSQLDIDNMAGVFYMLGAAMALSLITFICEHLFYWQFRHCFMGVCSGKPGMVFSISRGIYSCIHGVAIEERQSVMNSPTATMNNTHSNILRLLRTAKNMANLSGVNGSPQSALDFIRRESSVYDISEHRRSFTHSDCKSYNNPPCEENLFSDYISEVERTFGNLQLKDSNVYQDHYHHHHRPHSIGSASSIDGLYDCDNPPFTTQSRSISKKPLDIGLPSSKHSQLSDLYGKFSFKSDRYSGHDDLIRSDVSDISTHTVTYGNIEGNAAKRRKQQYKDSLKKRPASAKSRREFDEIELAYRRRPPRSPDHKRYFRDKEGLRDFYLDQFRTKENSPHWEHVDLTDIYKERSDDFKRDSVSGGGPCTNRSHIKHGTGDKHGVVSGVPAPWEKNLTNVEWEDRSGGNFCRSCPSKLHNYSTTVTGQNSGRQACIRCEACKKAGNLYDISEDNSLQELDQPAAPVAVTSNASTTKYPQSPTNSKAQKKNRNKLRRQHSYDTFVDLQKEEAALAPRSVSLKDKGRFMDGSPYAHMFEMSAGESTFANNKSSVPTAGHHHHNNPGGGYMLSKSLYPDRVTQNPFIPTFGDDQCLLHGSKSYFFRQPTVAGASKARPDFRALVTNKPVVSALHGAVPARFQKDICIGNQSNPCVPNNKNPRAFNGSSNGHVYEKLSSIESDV
Assay: NIMH-PDSP binding assay
Conditions: read-out: Affinity
measured-parameter: Ki

Supply reported Ki belonging to this molecule: Cc1ccc(-c2cc(C(F)(F)F)nn2-c2ccc(S(N)(=O)=O)cc2)cc1 [celecoxib]
> 10 µM
